Biological target: PARP-1 (Homo sapiens)
Construct: purchased BPS Bioscience 80569
Sequence (P09874 whole entry): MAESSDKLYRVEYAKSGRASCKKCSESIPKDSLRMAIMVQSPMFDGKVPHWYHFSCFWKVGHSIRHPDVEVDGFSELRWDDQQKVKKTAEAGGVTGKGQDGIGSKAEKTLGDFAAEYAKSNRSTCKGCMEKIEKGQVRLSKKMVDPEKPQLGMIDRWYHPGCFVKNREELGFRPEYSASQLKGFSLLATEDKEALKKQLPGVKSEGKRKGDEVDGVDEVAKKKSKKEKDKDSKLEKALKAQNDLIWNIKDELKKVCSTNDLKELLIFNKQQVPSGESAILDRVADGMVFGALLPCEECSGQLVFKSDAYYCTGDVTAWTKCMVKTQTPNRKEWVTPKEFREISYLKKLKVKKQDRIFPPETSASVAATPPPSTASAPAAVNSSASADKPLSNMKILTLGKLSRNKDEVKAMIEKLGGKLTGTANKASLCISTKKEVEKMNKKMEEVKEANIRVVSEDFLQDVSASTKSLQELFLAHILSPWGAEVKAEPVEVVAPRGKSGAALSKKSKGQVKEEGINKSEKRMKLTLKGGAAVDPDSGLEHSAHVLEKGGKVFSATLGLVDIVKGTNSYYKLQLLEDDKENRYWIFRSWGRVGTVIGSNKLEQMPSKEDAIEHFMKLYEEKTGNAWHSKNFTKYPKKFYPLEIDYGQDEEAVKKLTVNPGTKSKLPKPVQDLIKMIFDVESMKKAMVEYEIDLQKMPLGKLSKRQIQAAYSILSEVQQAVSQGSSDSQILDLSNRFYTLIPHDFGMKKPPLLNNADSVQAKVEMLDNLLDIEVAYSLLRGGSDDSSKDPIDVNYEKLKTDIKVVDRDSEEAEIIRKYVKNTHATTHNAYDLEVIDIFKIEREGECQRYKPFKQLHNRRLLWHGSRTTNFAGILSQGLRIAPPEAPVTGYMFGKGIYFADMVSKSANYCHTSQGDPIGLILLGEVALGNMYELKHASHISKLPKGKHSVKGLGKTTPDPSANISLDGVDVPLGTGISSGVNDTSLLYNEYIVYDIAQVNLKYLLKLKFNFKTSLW
Assay: PARP-1 inhibition assay (PARP-1 Chemiluminescent Assay Kit, BPS Bioscience)
Format: biochemical
Settings: read-out: PARP-1 IC50
Let's look at some compounds and their measured pIC50.
pIC50 here: minus log base 10 of the concentration, concentration in moles per litre.

Observe how each entry below is paired with its result.
NC(=O)c1cccc2[nH]c(C3CCN(CCCC(=O)c4ccccc4)C3)nc12 (stereo not drawn) | 7.91
COc1ccc(C(=O)CCN2CCC(c3nc4c(C(N)=O)cccc4[nH]3)C2)cc1 (stereo not drawn) | 8.23
NC(=O)c1cccc2[nH]c(C3CCN(CCC(=O)c4ccc(Cl)cc4)C3)nc12 (stereo not drawn) | 8.41

Q: # pIC50 lookup, item NC(=O)c1cccc2[nH]c(C3CCN(CCCNc4ccccc4)C3)nc12 (stereo not drawn)
Ans: 8.15

Q: # pIC50 lookup, item NC(=O)c1cccc2[nH]c(C3CCN(CCC(=O)c4ccccc4)C3)nc12 (stereo not drawn)
Ans: 8.44

Q: # pIC50 lookup, item NC(=O)c1cccc2[nH]c(C3CCN(CCNC(=O)c4ccccc4)C3)nc12 (stereo not drawn)
Ans: 7.95
